- Assay Text: Pharmacokinetics of FM05 hydrochloride salt, oral
- Type: in vivo, Balb/c mice
- Recorded Conditions: male, Balb/c, mouse, plasma, po, 42 mg/kg, oral, saline, read-out: Half-life (Distribution and absorption)
Quantity: half-life (min)
Unit min implied. Number only.

Problem: For the molecule `O=c1cc(-c2ccc(OCCC3CCN(Cc4ccncc4)CC3)cc2)oc2ccccc12` , what half-life is on record?
Solution: 25

---

Measured IC50 of individual entries
- System: L. donovani Ld39 promastigotes
- Assay Text: Anti-promastigote activity (MTS assay), L. donovani Ld39
- Assay type: cell-based
- Recorded Conditions: Leishmania donovani, 72 hours
- Protocol: Promastigotes of visceral L. donovani Ld39 and LdHU3, and cutaneous L. amazonensis LV78, L. braziliensis UA847 and L. major FV1 were employed in the study. […] Anti-promastigote activity was determined according to previous procedures (1) by Cell Titer 96® Aqueous Assay (Promega) that employed a tetrazolium compound. […] After 4 hours of incubation, the OD values were determined at 490 nm using automatic microtiter plate reader (Bio-Rad). […]

O=c1cc(-c2ccc(OCC3CCN(Cc4ccncc4)CC3)cc2)oc2ccccc12 [FM13]	700 nM

// moving on: another record for IC50
Problem: For the compound O=c1cc(-c2ccc(OCCC3CCCCN3Cc3ccncc3)cc2)oc2ccccc12 (centres unmarked) [FM17] , what IC50 is on record?
Solution: 1500 nM
